# system under test: Carbonic anhydrase 4 (Bos taurus, UniProt Q95323)
# Sequence (Q95323 whole entry): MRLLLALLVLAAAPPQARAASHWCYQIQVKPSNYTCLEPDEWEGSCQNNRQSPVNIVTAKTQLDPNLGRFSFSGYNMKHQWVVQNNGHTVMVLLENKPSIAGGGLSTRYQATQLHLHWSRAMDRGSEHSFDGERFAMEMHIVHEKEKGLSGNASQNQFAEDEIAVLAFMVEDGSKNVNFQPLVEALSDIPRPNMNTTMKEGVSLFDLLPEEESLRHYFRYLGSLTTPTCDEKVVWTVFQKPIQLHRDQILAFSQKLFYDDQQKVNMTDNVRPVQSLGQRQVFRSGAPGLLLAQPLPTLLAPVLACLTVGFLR
pKi: −log10 of the molar value.
The label depends only on pKi: criterion met if it is at least 6, criterion not met if it is smaller.

Worked examples, 5 compounds total:
- entry smiles: "NS(=O)(=O)c1ccc(NC(=O)c2c(F)c(F)c(F)c(F)c2F)c(Cl)c1"
  category label: "criterion met"
- entry smiles: "NS(=O)(=O)c1ccc(NS(=O)(=O)C(F)(F)F)cc1"
  category label: "criterion not met"
- entry smiles: "NS(=O)(=O)c1ccc(NS(=O)(=O)C(F)(F)C(F)(F)C(F)(F)C(F)(F)C(F)(F)C(F)(F)C(F)(F)C(F)(F)F)c(I)c1"
  category label: "criterion not met"
- entry smiles: "NS(=O)(=O)c1ccc(CCOS(=O)(=O)C(F)(F)C(F)(F)C(F)(F)C(F)(F)F)cc1"
  category label: "criterion not met"
- entry smiles: "NS(=O)(=O)c1ccccc1NS(=O)(=O)C(F)(F)F"
  category label: "criterion not met"

Input: Does the reported pKi for Cn1nc(S(N)(=O)=O)sc1=NS(=O)(=O)C(F)(F)F fall at or above the 6 mark?
Output: criterion met

Input: I'd appreciate it if you could say whether NS(=O)(=O)c1ccc(CCNS(=O)(=O)C(F)(F)F)cc1 has pKi at least equal to 6.
Output: criterion not met

Input: Dear colleague, could you confirm whether NS(=O)(=O)c1nnc(NC(=O)CCNS(=O)(=O)c2c(F)c(F)c(F)c(F)c2F)s1 has pKi at or above 6?
Output: criterion met

Input: Textbook exercise: given the entry NS(=O)(=O)c1nc2ccc(OS(=O)(=O)c3c(F)c(F)c(F)c(F)c3F)cc2s1 , state whether its pKi is greater than or equal to 6.
Output: criterion met

Input: Decide: pKi of NS(=O)(=O)c1cc(S(N)(=O)=O)c(NC(=O)c2c(F)c(F)c(F)c(F)c2F)cc1Cl >= 6?
Output: criterion met

The values you see were collected from ChEMBL document CHEMBL1133531.
